ASSAYED SYSTEM: Histamine H2 receptor (Cavia porcellus)
Sequence (P47747 whole entry): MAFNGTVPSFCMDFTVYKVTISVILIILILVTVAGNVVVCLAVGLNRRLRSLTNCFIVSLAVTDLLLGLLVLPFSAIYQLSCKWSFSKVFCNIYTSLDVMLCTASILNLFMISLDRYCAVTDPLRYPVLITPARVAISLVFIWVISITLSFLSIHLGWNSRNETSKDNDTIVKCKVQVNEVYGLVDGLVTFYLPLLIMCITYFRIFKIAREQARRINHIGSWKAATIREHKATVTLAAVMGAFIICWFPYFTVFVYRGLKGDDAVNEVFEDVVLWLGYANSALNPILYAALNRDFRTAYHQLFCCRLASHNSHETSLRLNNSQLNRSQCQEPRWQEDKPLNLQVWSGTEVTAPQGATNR
ENDPOINT LABEL: pKd
Give only the number. pKd is defined as minus log10 of concentration in molar units.

Task: // query pKd value for entry CC(N=O)c1ccc(OCc2ccc(CN3CCCCC3)cc2)cc1 (stereo unspecified)
Output: 4.85
